experimentalProtocol: self-splicing fitness, log relative to wild type (ln ratio); higher = more splicing; Tetrahymena group I intron in knt gene, E. coli kanamycin selection, DiMSum; sequences stand for … in CUCUCU…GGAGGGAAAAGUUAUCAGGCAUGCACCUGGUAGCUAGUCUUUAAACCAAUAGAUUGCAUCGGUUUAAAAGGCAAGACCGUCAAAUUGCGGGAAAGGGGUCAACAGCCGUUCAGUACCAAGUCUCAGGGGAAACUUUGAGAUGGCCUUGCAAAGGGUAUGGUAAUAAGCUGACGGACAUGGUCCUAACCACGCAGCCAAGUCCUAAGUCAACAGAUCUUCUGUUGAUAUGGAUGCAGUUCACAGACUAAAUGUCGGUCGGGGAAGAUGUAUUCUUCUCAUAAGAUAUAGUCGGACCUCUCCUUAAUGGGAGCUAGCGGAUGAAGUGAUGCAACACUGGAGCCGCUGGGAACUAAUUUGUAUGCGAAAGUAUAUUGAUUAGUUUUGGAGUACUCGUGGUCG;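 note: selection with 25 µg/mL kanamycin versus none on LB agar overnight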
testContext: 37 °C
measurementName: self-splicing fitness (ln)

- itemSequence: "UGGGAGCAAUAUUACGCUAG"
  value: -1.99
- itemSequence: "AGGGAGCAAUAUUACGCCUA"
  value: -1.68
- itemSequence: "GACAAGCAAUAUUACGUCGC"
  value: -2.1
- itemSequence: "GCUGAGCAAUAUUACGGGAC"
  value: -2.16
- itemSequence: "UUCCAGCAAUAUUACGUAGC"
  value: -1.51
- itemSequence: "AACUAGCAAUAUUACGCAGC"
  value: -2.98
- itemSequence: "AAAGAGCAAUAUUACGCAAU"
  value: -1.65
- itemSequence: "UCUUAGCAAUAUUACGGUUC"
  value: -2.29
- itemSequence: "GGAUAGCAAUAUUACGCCUA"
  value: -0.0155
- itemSequence: "AUGAAGCAAUAUUACGUCCA"
  value: 0.611
- itemSequence: "UUCAAGCAAUAUUACGGGGA"
  value: -0.885
- itemSequence: "GAGCAGCAAUAUUACGGGCA"
  value: -0.674
- itemSequence: "AGGUAGCAAUAUUACGAUGA"
  value: -0.562
- itemSequence: "CUGGAGCAAUAUUACGAUUU"
  value: -2.01
- itemSequence: "CCUGAGCAAUAUUACGGUAG"
  value: -2.26
- itemSequence: "GUAUAGCAAUAUUACGUGAC"
  value: -1.65
- itemSequence: "UACGAGCAAUAUUACGCGCA"
  value: -1.03
- itemSequence: "CCAAAGCAAUAUUACGCACG"
  value: -0.583
- itemSequence: "AAAAAGCAAUAUUACGUCUA"
  value: 0.068
- itemSequence: "CACCAGCAAUAUUACGCUUU"
  value: -1.94
- itemSequence: "UUUUAGCAAUAUUACGGGCA"
  value: -0.575
- itemSequence: "GACGAGCAAUAUUACGGAAA"
  value: -1.47
- itemSequence: "GAUAAGCAAUAUUACGACCG"
  value: -0.581
- itemSequence: "UCUCAGCAAUAUUACGGAAU"
  value: -1.85
- itemSequence: "AAUCAGCAAUAUUACGAUCA"
  value: 0.109
- itemSequence: "ACUUAGCAAUAUUACGGUGU"
  value: -1.64
- itemSequence: "UGUUAGCAAUAUUACGUCGA"
  value: 0.0206
- itemSequence: "UGAGAGCAAUAUUACGUAGC"
  value: -2.96
- itemSequence: "UGAAAGCAAUAUUACGCUGA"
  value: -3.15
- itemSequence: "AUCAAGCAAUAUUACGUUGU"
  value: -1.92
- itemSequence: "UUGAAGCAAUAUUACGGGAA"
  value: -0.634
- itemSequence: "ACGAAGCAAUAUUACGCGGC"
  value: -2.22
- itemSequence: "ACAUAGCAAUAUUACGAGCA"
  value: -1.1
- itemSequence: "AGGCAGCAAUAUUACGCAUG"
  value: -0.809
- itemSequence: "GCUAAGCAAUAUUACGCUUA"
  value: -3.17
- itemSequence: "GAAGAGCAAUAUUACGCUGA"
  value: -2.3
- itemSequence: "GCAAAGCAAUAUUACGUGCC"
  value: -1.63
- itemSequence: "ACCAAGCAAUAUUACGCCUG"
  value: -2.31
- itemSequence: "CGAGAGCAAUAUUACGUAUU"
  value: -1.4
- itemSequence: "CGUAAGCAAUAUUACGCACU"
  value: -1.6
- itemSequence: "CUGAAGCAAUAUUACGUAGG"
  value: -2.36
- itemSequence: "ACGAAGCAAUAUUACGCCCG"
  value: -0.0289
- itemSequence: "CUCGAGCAAUAUUACGCGAG"
  value: -2.98
- itemSequence: "CCCGAGCAAUAUUACGGUUG"
  value: -1.81
- itemSequence: "CGAAAGCAAUAUUACGUACA"
  value: -1.23
- itemSequence: "AAACAGCAAUAUUACGCCAU"
  value: -2.42
- itemSequence: "UCAUAGCAAUAUUACGAAGU"
  value: -3.51
- itemSequence: "CCCAAGCAAUAUUACGAACU"
  value: -2.91
- itemSequence: "UCGGAGCAAUAUUACGUUUA"
  value: -2.35
- itemSequence: "AACUAGCAAUAUUACGUUCC"
  value: -1.93
- itemSequence: "UAGCAGCAAUAUUACGGAAA"
  value: -1.81
- itemSequence: "UCGAAGCAAUAUUACGCCAG"
  value: -2.09
- itemSequence: "GUCCAGCAAUAUUACGGAUG"
  value: 0.023
- itemSequence: "UAUGAGCAAUAUUACGGCUC"
  value: -0.823
- itemSequence: "CGCAAGCAAUAUUACGGGGC"
  value: -2.6
- itemSequence: "CAUCAGCAAUAUUACGAAUA"
  value: -0.645
- itemSequence: "CCGCAGCAAUAUUACGUUUG"
  value: -1.36
- itemSequence: "UUAAAGCAAUAUUACGGUGG"
  value: 0.0701

====

experimentalProtocol: self-splicing fitness, log relative to wild type (ln ratio); higher = more splicing; Tetrahymena group I intron in knt gene, E. coli kanamycin selection, DiMSum; sequences stand for … in CUCUCU…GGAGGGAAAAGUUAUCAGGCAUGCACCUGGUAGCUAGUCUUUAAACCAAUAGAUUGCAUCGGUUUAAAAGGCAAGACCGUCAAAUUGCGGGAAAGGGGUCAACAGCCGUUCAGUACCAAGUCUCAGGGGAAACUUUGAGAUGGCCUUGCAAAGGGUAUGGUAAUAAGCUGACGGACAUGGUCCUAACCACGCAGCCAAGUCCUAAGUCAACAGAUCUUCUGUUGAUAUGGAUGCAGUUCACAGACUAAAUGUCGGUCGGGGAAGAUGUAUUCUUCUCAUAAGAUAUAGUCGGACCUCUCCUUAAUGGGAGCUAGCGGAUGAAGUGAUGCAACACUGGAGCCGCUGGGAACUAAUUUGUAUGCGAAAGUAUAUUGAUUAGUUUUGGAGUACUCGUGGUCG
testContext: 30 °C

- itemSequence: "CGAGAGCAAUAUUACGUCUC"
  self-splicing fitness (ln): -3.03
- itemSequence: "UAGUAGCAAUAUUACGGGCA"
  self-splicing fitness (ln): -1.17
- itemSequence: "UAACAGCAAUAUUACGAGGC"
  self-splicing fitness (ln): -3.62
- itemSequence: "CCCCAGCAAUAUUACGCUGG"
  self-splicing fitness (ln): -2.76
- itemSequence: "CAUCAGCAAUAUUACGAUGC"
  self-splicing fitness (ln): -4.35
- itemSequence: "UGCCAGCAAUAUUACGAGCA"
  self-splicing fitness (ln): -1.75
- itemSequence: "AACCAGCAAUAUUACGUACA"
  self-splicing fitness (ln): -1.08
- itemSequence: "AAGGAGCAAUAUUACGGCUA"
  self-splicing fitness (ln): -1.92
- itemSequence: "AGGAAGCAAUAUUACGGCUA"
  self-splicing fitness (ln): -0.35
- itemSequence: "CUUGAGCAAUAUUACGAUAA"
  self-splicing fitness (ln): -3.27
- itemSequence: "CGUUAGCAAUAUUACGUAGA"
  self-splicing fitness (ln): -2.87
- itemSequence: "GCUCAGCAAUAUUACGUACG"
  self-splicing fitness (ln): -1.72
- itemSequence: "CUUGAGCAAUAUUACGGUAC"
  self-splicing fitness (ln): -2.24
- itemSequence: "UUUGAGCAAUAUUACGGAGU"
  self-splicing fitness (ln): -2.49
- itemSequence: "GCUGAGCAAUAUUACGUCCG"
  self-splicing fitness (ln): -2.38
- itemSequence: "GUUAAGCAAUAUUACGUGCC"
  self-splicing fitness (ln): -1.39
- itemSequence: "AUUCAGCAAUAUUACGUCCU"
  self-splicing fitness (ln): -1.05
- itemSequence: "UUAAAGCAAUAUUACGCCCG"
  self-splicing fitness (ln): -0.0363
- itemSequence: "UAGUAGCAAUAUUACGGCUU"
  self-splicing fitness (ln): -0.242
- itemSequence: "AGCAAGCAAUAUUACGAUCA"
  self-splicing fitness (ln): -0.258
- itemSequence: "GUAUAGCAAUAUUACGCCGU"
  self-splicing fitness (ln): -2.69
- itemSequence: "GGUGAGCAAUAUUACGUUUA"
  self-splicing fitness (ln): -3.01
- itemSequence: "CAGAAGCAAUAUUACGCGAU"
  self-splicing fitness (ln): -4.46
- itemSequence: "CCAGAGCAAUAUUACGAGAG"
  self-splicing fitness (ln): -2.95
- itemSequence: "UCUGAGCAAUAUUACGCUGC"
  self-splicing fitness (ln): -2.24
- itemSequence: "AGCUAGCAAUAUUACGAGCC"
  self-splicing fitness (ln): -3.51
- itemSequence: "UCGAAGCAAUAUUACGCAUG"
  self-splicing fitness (ln): -1.2
